# Assayed target: CDK9/CycT1 (Homo sapiens, UniProt P50750)
# Construct: Recombinant full-length His-tagged human CDK9 and CycT1; His
# Sequence (P50750 whole entry): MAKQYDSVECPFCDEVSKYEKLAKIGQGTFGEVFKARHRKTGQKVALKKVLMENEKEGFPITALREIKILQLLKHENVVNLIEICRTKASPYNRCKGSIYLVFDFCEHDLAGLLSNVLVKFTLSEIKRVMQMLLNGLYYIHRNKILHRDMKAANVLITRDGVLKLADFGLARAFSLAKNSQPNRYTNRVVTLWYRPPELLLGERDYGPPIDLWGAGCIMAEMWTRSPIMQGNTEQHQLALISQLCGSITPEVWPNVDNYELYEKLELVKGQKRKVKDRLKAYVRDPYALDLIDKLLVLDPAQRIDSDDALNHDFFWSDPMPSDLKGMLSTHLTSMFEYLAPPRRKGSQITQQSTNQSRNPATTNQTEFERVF
# Sequence (O60563 whole entry partner): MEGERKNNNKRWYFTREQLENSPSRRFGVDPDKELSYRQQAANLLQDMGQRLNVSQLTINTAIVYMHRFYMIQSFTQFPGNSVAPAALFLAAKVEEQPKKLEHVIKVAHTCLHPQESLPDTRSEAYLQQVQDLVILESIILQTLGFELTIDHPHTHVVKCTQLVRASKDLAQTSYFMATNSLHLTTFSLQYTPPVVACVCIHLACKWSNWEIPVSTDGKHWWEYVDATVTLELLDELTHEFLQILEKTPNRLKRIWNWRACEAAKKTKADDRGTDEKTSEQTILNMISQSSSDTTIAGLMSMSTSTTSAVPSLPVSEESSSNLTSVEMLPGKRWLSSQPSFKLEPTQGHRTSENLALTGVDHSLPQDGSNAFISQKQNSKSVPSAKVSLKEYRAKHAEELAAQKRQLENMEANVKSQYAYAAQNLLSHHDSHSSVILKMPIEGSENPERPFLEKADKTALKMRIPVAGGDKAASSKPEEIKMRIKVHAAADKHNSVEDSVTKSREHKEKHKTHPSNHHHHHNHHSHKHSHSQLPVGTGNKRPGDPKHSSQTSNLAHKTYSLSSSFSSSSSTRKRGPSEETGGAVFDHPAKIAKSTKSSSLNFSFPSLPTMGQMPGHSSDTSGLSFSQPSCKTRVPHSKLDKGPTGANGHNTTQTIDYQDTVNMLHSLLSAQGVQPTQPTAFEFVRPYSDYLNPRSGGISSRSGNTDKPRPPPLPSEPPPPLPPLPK
# Method description: CDK9/CycT1 high ATP kinase assay (TR-FRET, 2 mM ATP)
# Condition: 2 mM ATP, Method 1b; lower limit for IC50s about 1-2 nM
Test readout: log10 IC50 (log10 of the value in nM)

compound="CSCc1cc2nc(c1)OC(C)CCCOc1cc(ccc1F)-c1cc(ncc1F)N2 (single isomer, unassigned) [Example 13]" reported_measurement=0.60
compound="CSCc1cc2nc(c1)OC(C)CCCCCOc1cc(ccc1F)-c1cc(ncc1F)N2 (racemic) [Example 23]" reported_measurement=1.83
compound="CS(=N)(=O)Cc1cc2cc(c1)OCCCCOc1c(F)ccc(c1F)-c1nc(ncc1F)N2 (racemic)" reported_measurement=1.23
compound="CSCc1cc2nc(c1)OC(C)CCCCOc1cc(ccc1F)-c1cc(ncc1F)N2 (single isomer, unassigned) [Example 20]" reported_measurement=1.36
compound="CC(C)(C)OC(=O)N=S(C)(=O)Cc1cc2cc(c1)OCCCCCOc1cc(ccc1F)-c1nc(ncc1F)N2 (racemic)" reported_measurement=1.38
compound="CC1CCCCOc2cc(ccc2F)-c2cc(ncc2F)Nc2cc(CS(C)(=O)=O)cc(n2)O1 (single isomer, unassigned) [Example 30]" reported_measurement=0.48
compound="CS(=N)(=O)Cc1cc2cc(c1)OCCCCCOc1cc(ccc1F)-c1nc(ncc1F)N2 (racemic)" reported_measurement=0.70
compound="CS(=N)(=O)Cc1cc2cc(c1)OCCCCOc1cc(ccc1F)-c1nc(ncc1F)N2 (racemic)" reported_measurement=0.48
compound="CC1CCCOc2cc(ccc2F)-c2cc(ncc2F)Nc2cc(CS(C)(=N)=O)cc(n2)O1 (single isomer, unassigned) [Example 14]" reported_measurement=0.48
compound="CSCc1cc2nc(c1)OC(C)CCCCOc1cc(ccc1F)-c1cc(ncc1F)N2 (racemic) [Example 18]" reported_measurement=1.51
compound="CC(C)(C)OC(=O)N=S(C)(=O)Cc1cc2cc(c1)OCCCCOc1cc(ccc1F)-c1nc(ncc1F)N2 (racemic)" reported_measurement=0.70
compound="CSCc1cc2nc(c1)OC(C)CCCCCOc1cc(ccc1F)-c1cc(ncc1F)N2 (single isomer, unassigned) [Example 25]" reported_measurement=1.97
compound="CSCc1cc2nc(c1)OC(C)CCCCCOc1cc(ccc1F)-c1cc(ncc1F)N2 (single isomer, unassigned) [Example 24]" reported_measurement=1.83
compound="CC1CCCCCOc2cc(ccc2F)-c2cc(ncc2F)Nc2cc(CS(C)(=O)=O)cc(n2)O1 (single isomer, unassigned) [Example 32]" reported_measurement=1.26

---

Item-by-item account of Selectivity high ATP CDK9 over high ATP CDK2: IC50 (high ATP CDK2)/IC50 (high ATP CDK9)
# Assayed target: CDK9/CycT1 (Homo sapiens, UniProt P50750)
# Construct: Recombinant full-length His-tagged human CDK9 and CycT1; His; purchased Life Technologies PV4131; host or cells: insect cells
# Method description: CDK9/CycT1 high ATP kinase assay (TR-FRET, 2 mM ATP)
# Format: biochemical
# Condition: ratio from Methods 1b and 2b; minimal values for IC50s near the assay limit
Test readout: Selectivity high ATP CDK9 over high ATP CDK2: IC50 (high ATP CDK2)/IC50 (high ATP CDK9)

molecule="CC1CCCCCOc2cc(ccc2F)-c2cc(ncc2F)Nc2cc(CS(C)(=O)=O)cc(n2)O1 (single isomer, unassigned) [Example 31]" assayed_target="CDK9/CycT1 (Homo sapiens, UniProt P50750)" reported_measurement=1250
molecule="CC(C)(C)OC(=O)N=S(C)(=O)Cc1cc2cc(c1)OCCCCCOc1cc(ccc1F)-c1nc(ncc1F)N2 (racemic) [Example 5]" assayed_target="CDK9/CycT1 (Homo sapiens, UniProt P50750)" reported_measurement=>833
molecule="CSCc1cc2nc(c1)OC(C)CCCCCOc1cc(ccc1F)-c1cc(ncc1F)N2 (single isomer, unassigned) [Example 25]" assayed_target="CDK9/CycT1 (Homo sapiens, UniProt P50750)" reported_measurement=>215

---

Item-by-item account of pIC50
# Assayed target: CDK2/CycE (Homo sapiens, UniProt P24941)
# Construct: GST
# Method description: CDK2/CycE high ATP kinase assay (TR-FRET, 2 mM ATP)
# Condition: Method 2b
pIC50: −log10 of the molar value.
Test readout: pIC50

compound="CSCc1cc2nc(c1)OC(C)CCCCCOc1cc(ccc1F)-c1cc(ncc1F)N2 (racemic) [Example 23]" reading_qualifier=< reported_measurement=4.70
compound="CC(C)(C)OC(=O)N=S(C)(=O)Cc1cc2cc(c1)OCCCCOc1cc(ccc1F)-c1nc(ncc1F)N2 (racemic) [Example 3]" reading_qualifier=< reported_measurement=4.70
compound="CSCc1cc2nc(c1)OC(C)CCCCCOc1cc(ccc1F)-c1cc(ncc1F)N2 (single isomer, unassigned) [Example 25]" reading_qualifier=< reported_measurement=4.70
compound="CS(=N)(=O)Cc1cc2cc(c1)OCCCCOc1cc(ccc1F)-c1nc(ncc1F)N2 (racemic) [Example 4]" reading_qualifier== reported_measurement=5.81
compound="CSCc1cc2nc(c1)OC(C)CCCCOc1cc(ccc1F)-c1cc(ncc1F)N2 (racemic) [Example 18]" reading_qualifier=< reported_measurement=4.70
compound="CS(=N)(=O)Cc1cc2nc(c1)OCCCCOc1cc(ccc1F)-c1cc(ncc1F)N2 (racemic) [Example 2]" reading_qualifier== reported_measurement=6.13
compound="CC1CCCCOc2cc(ccc2F)-c2cc(ncc2F)Nc2cc(CS(C)(=N)=O)cc(n2)O1 (single isomer, unassigned) [Example 22]" reading_qualifier== reported_measurement=6.30

---

# Test system: DU145 cells
# Method description: Proliferation assay, DU145
# Assay type: cell-based
# Condition: Homo sapiens, DU-145, 96 h; 4 days, crystal violet; read-out: Inhibition of DU145 cell proliferation IC50
Test readout: IC50 (nM)

compound="CC(C)(C)OC(=O)N=S(C)(=O)Cc1cc2cc(c1)OCCCCCOc1cc(ccc1F)-c1nc(ncc1F)N2 (racemic)" test_readout=IC50 reported_measurement=585
compound="CS(=N)(=O)Cc1cc2cc(c1)OCCCCOc1cc(ccc1F)-c1nc(ncc1F)N2 (racemic)" test_readout=IC50 reported_measurement=138
compound="CC(C)(C)OC(=O)N=S(C)(=O)Cc1cc2cc(c1)OCCCCOc1cc(ccc1F)-c1nc(ncc1F)N2 (racemic)" test_readout=IC50 reported_measurement=206
compound="CS(=N)(=O)Cc1cc2cc(c1)OCCCCOc1c(F)ccc(c1F)-c1nc(ncc1F)N2 (racemic)" test_readout=IC50 reported_measurement=196
compound="CS(=N)(=O)Cc1cc2nc(c1)OCCCCOc1cc(ccc1F)-c1cc(ncc1F)N2 (racemic)" test_readout=IC50 reported_measurement=85
compound="CS(=N)(=O)Cc1cc2cc(c1)OCCCCCOc1cc(ccc1F)-c1nc(ncc1F)N2 (racemic)" test_readout=IC50 reported_measurement=121
compound="CS(=N)(=O)Cc1cc2cc(c1)OCCCOc1cc(ccc1F)-c1nc(ncc1F)N2 (racemic)" test_readout=IC50 reported_measurement=180

---

# Assayed target: CDK9/CycT1 (Homo sapiens, UniProt P50750)
# Construct: Recombinant full-length His-tagged human CDK9 and CycT1; His; purchased Life Technologies PV4131; host or cells: insect cells
# Method description: CDK9/CycT1 high ATP kinase assay (TR-FRET, 2 mM ATP)
# Format: biochemical
# Condition: ratio from Methods 1b and 2b; minimal values for IC50s near the assay limit
# Protocol: 1b. CDK9/CycT1 High ATP Kinase Assay CDK9/CycT1-inhibitory activity of compounds of the present invention at a high ATP concentration after preincubation of enzyme and test compounds was quantified employing the CDK9/CycT1 TR-FRET assay as described in the following paragraphs. Recombinant full-length His-tagged human CDK9 and CycT1, expressed in insect cells and purified by Ni-NTA affinity chromatography, were purchased from Life Technologies (Cat. No PV4131). […]
Tag: met if measured Selectivity high ATP CDK9 over high ATP CDK2: IC50 (high ATP CDK2)/IC50 (high ATP CDK9) is not below 200, not met if it is.

molecule="CC1CCCOc2cc(ccc2F)-c2cc(ncc2F)Nc2cc(CS(C)(=O)=O)cc(n2)O1 (racemic)" answer_label="not met"
molecule="CC1CCCCOc2cc(ccc2F)-c2cc(ncc2F)Nc2cc(CS(C)(=O)=O)cc(n2)O1 (single isomer, unassigned) [Example 30]" answer_label=met
molecule="CSCc1cc2nc(c1)OC(C)CCCCCOc1cc(ccc1F)-c1cc(ncc1F)N2 (racemic) [Example 23]" answer_label=met
molecule="CC1CCCOc2cc(ccc2F)-c2cc(ncc2F)Nc2cc(CS(C)(=N)=O)cc(n2)O1 (single isomer, unassigned) [Example 17]" answer_label="not met"
molecule="CSCc1cc2nc(c1)OC(C)CCCOc1cc(ccc1F)-c1cc(ncc1F)N2 (single isomer, unassigned) [Example 12]" answer_label=met
molecule="CC1CCCCOc2cc(ccc2F)-c2cc(ncc2F)Nc2cc(CS(C)(=N)=O)cc(n2)O1 (single isomer, unassigned) [Example 21]" answer_label=met
molecule="CC1CCCCOc2cc(ccc2F)-c2cc(ncc2F)Nc2cc(CS(C)(=O)=O)cc(n2)O1 (single isomer, unassigned) [Example 29]" answer_label="not met"
